All values here come from ChEMBL document CHEMBL1201862.

- Tested on: HCC 2998
- assay-details: NCI tumour cell line growth inhibition, 48 h
Activity calls are given as the source filed them. Rule as the data show it: active = GI50 up to about 1.1 µM and inactive = higher.
reported-endpoint: GI50

Here is how some compounds turned out for GI50.
In [3]: df
Out[3]:
                                 smiles_str  experimental_target  reported_endpoint             measured
0   Cc1[nH]c(=O)[nH]c(=S)c1C(=O)NC(C)(CO)CO             HCC 2998               GI50  > 100 µM (inactive)
1  S=C1NCN2CCN(CC2)CNC(=S)C(=S)NCN2CCN(CC2)CNC1=S             HCC 2998               GI50   78.5 µM (inactive)
2     CC(C)(C)OC(=O)N(O)CCCn1cnc2c(N)ncnc21             HCC 2998               GI50  > 100 µM (inactive)
3    CC1(C)OC[C@@H](C[C@H](O)COCc2ccccc2)O1             HCC 2998               GI50  > 100 µM (inactive)

Query: GI50; subject: COc1ccc2c(c1)c1c(n2CCN2CCCCC2)-c2ccccc2CC1
6.78 µM (inactive)

Param item: CCO/C(Cc1ccc(Cl)cc1)=N/NC(N)=S
> 100 µM (inactive)

* * *

Each record here notes measured GI50.
- Tested on: Hs-578T
- assay-details: NCI tumour cell line growth inhibition, 48 h
Active and inactive are the calls of the source. Rule as the data show it: active = GI50 up to about 1.1 µM and inactive = higher.

Illustrative cases are given below, each with its answer.
In [3]: df
Out[3]:
                                   molecule  reported_endpoint            measured
0  CC(C)[Si](OC1=CCC[C@H]2NC(=O)[C@@H](Cc3ccc([N+](=O)[O-])cc3)[C@@]12C)(C(C)C)C(C)C               GI50  7.31 µM (inactive)
1  SC1=Nc2ccccc2-c2nc(-c3cccc(Cl)c3)cc(-c3ccccc3)c2C1               GI50  2.05 µM (inactive)
2  CC(C)(C)OC(=O)N1C/C=C\C(=O)C2(OCCO2)c2ccccc21               GI50    45 µM (inactive)

Query molecule follows.
Find the recorded GI50 belonging to CN(N=O)C(=O)N[C@H]1C(O)O[C@H](CO)[C@@H](O)[C@@H]1O (some centres undefined) and report it.
> 750 µM (inactive)

* * *

Collected GI50 values appear next to each entry.
- System: U-251
- assay-details: NCI tumour cell line growth inhibition, 48 h
Activity calls are given as the source filed them. Cut-off read from the data, not from the text of the source: active = GI50 up to about 1.1 µM and inactive = higher.

Reference set (8 entries):
compound	GI50
CN(C)CCCC12CCCCC1=Nc1ccccc12 (stereo unspecified)	> 100 µM (inactive)
CC1=NC2(CCCCC2)N(Cl)C(=O)C1SC#N (stereo unspecified)	19.4 µM (inactive)
COC(=O)c1cc(C#N)[nH]c1-c1ccsc1	> 100 µM (inactive)
O=C1CC[C@@H](NC(=O)Cc2ccccc2)C(=O)N1	> 100 µM (inactive)
COC1=CC(=O)C2C(C1=O)C(c1ccccc1)[C@H]2C (stereo partly specified)	> 100 µM (inactive)
O=C1CSC2(CC(/C=C/c3ccccc3[N+](=O)[O-])=NN2c2cccc(S(=O)(=O)O)c2)N1c1nc2ccccc2s1 (stereo unspecified)	14.5 µM (inactive)
CN1C/C(=C\c2cccs2)C(=O)/C(=C/c2cccs2)C1	15.6 µM (inactive)
CCN(CC)CC(O)C1CCC(c2ccccc2)CC1 (stereo unspecified)	19.8 µM (inactive)

Now for another entry.
Identify the measured GI50 of COc1cc2c(cc1OC)C(C(CBr)CBr)N(C1CCCC1)CC2 (stereo unspecified) for U-251.
> 100 µM (inactive)

* * *

- Test system: A549
- assay-details: NCI tumour cell line growth inhibition, 48 h
The source made the active and inactive calls. Cut-off read from the data, not from the text of the source: active = GI50 up to about 1.1 µM and inactive = higher.
reported-endpoint: GI50

Example entries begin here.
In [3]: df
Out[3]:
                                   molecule  experimental_target  reported_endpoint             measured
0  O=C(O)C(Br)Cc1ccc2c(c1)OCO2 (stereo unspecified)                 A549               GI50  > 100 µM (inactive)
1           N#Cc1c(Cl)cc(C#N)n2c1nc1ccccc12                 A549               GI50     15 µM (inactive)
2  CC1=C(CO)C(=O)O[C@@H]([C@@H](C)[C@H]2CC[C@H]3[C@@H]4C[C@H]5O[C@]56[C@@H](O)C=CC(=O)[C@]6(C)[C@H]4CC[C@]23C)C1                 A549               GI50   3.31 µM (inactive)
3  N#Cc1c(-c2ccco2)cc(-c2ccc(NCc3nc4ccccc4[nH]3)cc2)nc1N                 A549               GI50   29.8 µM (inactive)
4  COC(=O)CCCC(=O)NC1=C(Nc2ccccc2)C(=O)c2ccccc2C1=O                 A549               GI50   19.5 µM (inactive)

Kindly review the next molecule as well.
Please report the recorded GI50 for Cc1ccc(C(=O)/C=C/N2CCN(c3cccc(C(F)(F)F)c3)CC2)cc1 .
22.9 µM (inactive)

* * *

- Test system: SK-MEL-2
- assay-details: NCI tumour cell line growth inhibition, 48 h
Calls of active or inactive are those of the source. Cut-off read from the data, not from the text of the source: active = GI50 up to about 1.1 µM and inactive = higher.
In this exercise, the only acceptable responses are class 1 = active, class 0 = inactive

Outcome? COc1cc2c(cc1OC)C13CCN4CC5=CCOC(CC(=O)O)C(C5CC41)C3N2 (centres undefined)
class 0

* * *

The following molecules are listed with their measured GI50 values.
- Test system: UACC-62
- assay-details: NCI tumour cell line growth inhibition, 48 h
Activity calls are given as the source filed them. No stated cut-off is given here; in the data, active = GI50 up to about 1.1 µM and inactive = higher.

Which GI50 value belongs to Cc1cc(O)c2c(c1)CC(O)C1=C2C(=O)c2c(O)ccc(OC3CC(O)C(OC4CC(OC5CCC(O)C(C)O5)C(O)C(C)O4)C(C)O3)c2C1=O (stereo unspecified) ?
1.68 µM (inactive)

Would you mind doing Oc1nc(S)nc2nc3c4cccnc4c4ccccc4c3nc12 as well?
> 100 µM (inactive)

Subsequent entry: CCOC(=O)C1(C(C)=O)OC(=O)c2cnccc21 (stereo unspecified)
> 100 µM (inactive)

Ok, now O=C1OS2(OCc3cccc4cccc2c34)c2ccccc21 (stereo unspecified)
> 100 µM (inactive)

Now this one: O=C(Nn1c(-c2ccccc2)nc2ccccc2c1=O)c1ccc([N+](=O)[O-])cc1
45.2 µM (inactive)

Quick one: CC(=S)NC=C(C(N)=O)C(N)=O
> 100 µM (inactive)

And for O=C1Sc2ccccc2C(=O)N2CSCC12 (stereo unspecified) ?
> 100 µM (inactive)

Moving on to O=C(O)[C@@H]1NC[C@H]2C(Br)=NO[C@H]21
> 100 µM (inactive)

Next molecule: CCNCC(O)COc1ccc2c(c1)[n+]([O-])nc(N)[n+]2[O-] (stereo unspecified)
18 µM (inactive)

// next record O=C1C=CC2(C=C1)C[C@H](NC(=O)OCc1ccccc1)C(=O)O2
17.3 µM (inactive)

Also Nc1ccn(C2OC(CO)C(O)C2O)c(=O)c1 (stereo unspecified) , if possible.
337 µM (inactive)

* * *

- Tested on: LOX IMVI
- assay-details: NCI tumour cell line growth inhibition, 48 h
Active and inactive are the calls of the source. Cut-off read from the data, not from the text of the source: active = GI50 up to about 1.1 µM and inactive = higher.
reported-endpoint: GI50

Given CC(=O)/N=C1\NC(=O)/C(=C/c2ccccc2Cl)N1C , state its recorded GI50.
> 100 µM (inactive)

# iterate: CC(=O)C1=C(C)NC2C=CC=CN12 (stereo not given)
> 100 µM (inactive)

Continue with Cc1cc(O)c2c(c1)CC(O)C1=C2C(=O)c2c(O)ccc(OC3CC(O)C(OC4CC(OC5CCC(O)C(C)O5)C(O)C(C)O4)C(C)O3)c2C1=O (stereo not given)
1.33 µM (inactive)

Now give it for COc1cc2c(cc1OC)C13CCN4CC5=CCOC(CC(=O)O)C(C5CC41)C3N2 (stereo not given) too.
> 100 µM (inactive)

Thanks! And COc1cc2c(cc1OCc1ccccc1)NC(=O)[C@@H]1C[C@@H](O)CN1C2=O ?
> 100 µM (inactive)

* * *

- Tested on: CCRF-CEM
- assay-details: NCI tumour cell line growth inhibition, 48 h
Active and inactive are the calls of the source. Rule as the data show it: active = GI50 up to about 1.1 µM and inactive = higher.
Pick from True for active, False for inactive when you respond.

>>> df
                                   compound  experimental_target  assigned_class
0  N#Cc1c(-c2ccco2)cc(-c2ccc(NCc3nc4ccccc4[nH]3)cc2)nc1N             CCRF-CEM           False

Hi team, can someone confirm the assay call for CO[C@H]1CC[C@]2(C)C3=CC[C@@]4(C)C(CC[C@@H]4C(C)CC[C@@H](C)C(C)C)C(=CCC2C1)O3 (stereo not given in full) ?
False

Next entry: COc1cccc(C2c3cc4c(cc3OC(N3CCOCC3)C2C)OCO4)c1O (stereo not given)
False

Try CCCCC1(C(NC(=O)c2ccccc2Cl)c2ccncc2)C(=O)N(c2ccccc2)N(c2ccccc2)C1=O (stereo not given) next.
False

And the next one, CCCCCCCCCCCCC(O)C(=O)O (stereo not given) ?
False

Then Cc1ccc(F)c2c(=O)cc(-c3ccccc3)[nH]c12 ?
False

Same thing, different compound: COc1ccc([C@@H]2ON(C)[C@H]3CN(C)C(=O)[C@@H]23)cc1
False

Okay, and COC1=C(C)C(=O)C2=C(C1=O)[C@@H]1[C@@H]3Cc4c(OC(=O)CO)c(C)c(OC)c(O)c4[C@H](CNC(=O)C(C)=O)N3[C@@H](C#N)[C@H](C2)N1C ?
True

Also check COc1ccc2c(c1)c1c(n2CCN2CCCCC2)-c2ccccc2CC1
False

Would you mind doing O=C1C2=C(c3ccccc31)C(c1ccc(Cl)cc1)N1C(=O)CCSC1=N2 (stereo not given) as well?
False

Query [Se]=P(c1ccccc1)(c1ccccc1)c1ccc(C(c2ccccc2)=P(c2ccccc2)(c2ccccc2)c2ccccc2)cc1 next
True

Request: O=C1CC(C(O)(C(F)(F)F)C(F)(F)Cl)CCC1C(O)(C(F)(F)F)C(F)(F)Cl (stereo not given)
False

// query: COc1c2c(c3ccccc3c1O)C1C=CC2C1 (stereo not given)
False

// query: O=C(N/N=C/c1ccc([N+](=O)[O-])cc1)c1cccc2nc3ccccc3nc12
False

Would you kindly repeat that for O=c1[nH]c(=O)n(C2CC(O)C(CO)O2)cc1C#Cc1cc(F)cc(F)c1 (stereo not given) ?
False

Repeat for the following compound: O=C1C(F)=CC(COC(c2ccccc2)(c2ccccc2)c2ccccc2)OC1n1cc(F)c(=O)[nH]c1=O (stereo not given)
True

Quick one: C#C[C@@]1(O)CCCC2=CC(=O)C[C@]21C
False

How about COc1cnc2oc3ccc(O)cc3c2c1-c1ccccc1 ?
False

Thanks! And CCCC(C)NC1=C(NC(C)=O)C(=O)c2ccccc2C1=O (stereo not given) ?
False

Would you kindly repeat that for COc1cc(C(=O)O)c(-c2cc3c(cc2C=O)OCO3)c(OC)c1OC ?
False
